# System: MS2 coat protein
# protocol_description: apparent KD of MS2 coat protein; designed switch direction (-1 OFF switch, 1 ON switch): 1; higher = weaker reporter binding
# condition_notes: input ligand: none
measured_property: apparent KD of MS2 coat protein (nM)
Numbers only, in nM.

Please supply apparent KD of MS2 coat protein for each of the following items, keeping them in order.
1. AGCUAGUACCAAGGAUAUACGAACAUGAGGAUCACCCAUGUAUACAUGGUUUAAUGAGACUACAUGUAGAAGGUGGUACUAGCA [SameState NG2 #12] (Eterna round: R96, puzzle: Same State NG 2)
2. AGAAGACAUGAGGAUCACCCAUGUACCUCAUAAGGAGAGAGCGAGGAUAUGUAGAGAGAGAGGGAACAGAAGGUGUGAGAGGAA [Default title] (Eterna round: R96, puzzle: Same State NG 3)
3. AAGAAACAUGAGGAUCACCCAUGUGAUAAUAUGGGAGGAUAUACAAAGACGAAAGUCGAAGUAGAAGGCCUAUGAA [Garnet 43] (Eterna round: R96, puzzle: Same State 1)
4. GCAACUCGUAGAGGAUAUGUCCAGCAAGUAUCACAUGAGGAUCACCCAUGUUCAGCUCUACACCUGCAGAAGGCUAUUAGUGCA [Eternabot solution 46] (Eterna round: R96, puzzle: Same State NG 2)
5. UUGAAGAAUUAAGGAUAUCGAGUACAUAUGUUAAACAUGAGGAUCACCCAUGUGGGUUGCGGUAUCGAGAAGGUAAAUUACAAG [JL SSNG2 1.42] (Eterna round: R96, puzzle: Same State NG 2)
6. AGAUCAUGACGAGGAUAUCCGACAUGAGGAUCACCCAUGUAUGUCGGAGGACGAAUACGUCCAAAGGAGAAGGCGUCGUGGUCA [Mat - Same State NG 2 - JL mod - D38] (Eterna round: R96, puzzle: Same State NG 2)
7. UUGAAGAAUUAAGGAUAUUGAAUACAUAUGUUUAACAUGAGGAUCACCCAUGUGGGUUGCGGUGUCGAGAAGGUAAAUUAAUAG [Mat - same State NG 2 - JL mod - D94] (Eterna round: R96, puzzle: Same State NG 2)

# output
1: 538; 2: 161; 3: 68.7; 4: 17.2; 5: 36.5; 6: 85.4; 7: 291

Please supply apparent KD of MS2 coat protein for each of the following items, keeping them in order.
1. GUUACAUGAGGAUCACCCAUGUAUGUGUGGGAGUAAGUGUCUUAGGAUAUCUAUCAAUUAAUUUAAGAGAAGGAAGAUUGUUGU [JMF's solution 89] (Eterna round: R96, puzzle: Same State NG 3)
2. GUUACAUGAGGAUCACCCAUGUAUGUGUGGGAGUAAGUGUCUUAGGAUAUCUGUUAUUGAAUUUAAGAGAAGGAAGAUUGUUGU [JMF's solution 37] (Eterna round: R96, puzzle: Same State NG 3)
3. UGGUACAUGGGAGGAUAUGGGCAAGGGACAUGAGGAUCACCCAUGUAUUAAAAGCCGAAAGGCAUCUAGAAGGCCCAUGUACCU [JL SSNG1 3.87] (Eterna round: R96, puzzle: Same State NG 2)
4. AUUAUUUAUGCAGGAUAUGAUUAACAUGAGGAUCACCCAUGUGGUGUUGUGAGUAAGGAGAGUGAUCAGAAGGGCAUUUUUUUG [JMF's solution 57] (Eterna round: R96, puzzle: Same State NG 2)
5. GUGGAGGGUUGAGGAUAUUGAAUACAUAUGUUUAACAUGAGGAUCACCCAUGUGGGUUGCGGUAUCGAGAAGGUAAAUUACUGG [salish99_SSNG2_r04_036] (Eterna round: R96, puzzle: Same State NG 2)
6. UGGCUCAGACGAGGAUAUGAUCAUGGCGCUUCGGCGCAUACAUGAGGAUCACCCAUGUAGGGUGAUCAGAAGGCGUCUGAGCCA [SSNG2/8-A2] (Eterna round: R96, puzzle: Same State NG 2)
7. CAUACGCGGAGAGGAUAUCGCAGGGUAACGGUAAGUGCCCGAUGACAUGAGGAUCACCCAUGUAUCGAGAAGGCUCCUCACCCU [Eternabot solution 22] (Eterna round: R96, puzzle: Same State NG 2)

# output
110
100
50.2
350
86.3
460
15.1
